These entries and their values trace back to the supplement of paper PMC11208160.

- experimental-details: recombinant UMI read abundance after kanamycin selection (control-corrected) (log10(CPM+1)); higher = more efficient recombination; extreme values may be limits of the assay; sequences stand for … in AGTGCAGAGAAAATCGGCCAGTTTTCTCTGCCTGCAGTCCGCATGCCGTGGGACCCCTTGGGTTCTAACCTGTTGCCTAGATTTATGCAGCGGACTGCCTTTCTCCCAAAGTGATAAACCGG…AGGTTGGTTTCACT; site = the 11-nt donor;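 note: IS621 bridge recombinase in Escherichia coli cells against a fixed T5 target plasmid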
Attribute: recombinant UMI read abundance (log10)
Reply briefly: the number, and no unit.

polymer-sequence | recombinant UMI read abundance (log10)
TGGGTAACATGGACCGGTTTTCCCGGTAATCCGTATTTGAC (site TGGGTAACTGT) | 1.61
CTGTACACATGGACCGGTTTTCCCGGTAATCCGTATTTGCT (site CTGTACACTAG) | 2.51

Ask | State its recombinant UMI read abundance (log10): ACTGGTGCATGGACCGGTTTTCCCGGTAATCCGTATTTGGT (site ACTGGTGCTAC)
Reply | 1.69

Ask | State its recombinant UMI read abundance (log10): ACTAGTGCATGGACCGGTTTTCCCGGTAATCCGTATTTGGG (site ACTAGTGCTAC)
Reply | 0.0186

Ask | State its recombinant UMI read abundance (log10): TTCGGGGCATGGACCGGTTTTCCCGGTAATCCGTATTTGTC (site TTCGGGGCTGA)
Reply | 0

Ask | State its recombinant UMI read abundance (log10): CTGAATGCATGGACCGGTTTTCCCGGTAATCCGTATTTGTT (site CGGAATCCTAA)
Reply | 0.00219
